- System: SF-268 CNS
- protocol_notes: NCI tumour cell line growth inhibition, 48 h
Give measured TGI for each item. Keep answers brief.
Express it in µM; write the number only.

C/C(=N\Nc1cccc(Cl)n1)c1ccccn1 yielded TGI of 15.2

CC1(C)O[C@@H](CP(c2ccccc2)c2ccccc2)[C@H](CP(c2ccccc2)c2ccccc2)O1 yielded TGI of 25.3

----------
- Test system: 786-0 renal
- protocol_notes: NCI tumour cell line growth inhibition, 48 h; in the data active = GI50 below about 0.43 µM; inactive = the rest
Use one of these outcomes when replying: yes (1) = active, no (0) = inactive

Request: Please let me know the test result on file for ClC1=C(Cl)C(Cl)=C(Cl)C1=Cc1ccc(Cl)cc1 .
Result: no (0)

Request: Please let me know the test result on file for COc1cc(/C=C/C(=O)c2ccc(Nc3nc(Nc4ccccc4)nc(Nc4ccc(Cl)cc4)n3)cc2)cc(OC)c1OC .
Result: no (0)

Request: Please let me know the test result on file for Cc1ccc(-c2cc(/C=N/O)on2)cc1 .
Result: no (0)

Request: Please let me know the test result on file for N#CSCC(=O)c1ccc(Cl)cc1 .
Result: no (0)

Request: Please let me know the test result on file for CC(=O)N[C@@H](Cc1ccc(OP(=O)(O)O)cc1)C(=O)N[C@H]1CCC(=O)N2CCC[C@@H](C(=O)NCc3ccc(O)cc3)N2C1=O .
Result: no (0)

Request: Please let me know the test result on file for COC(=O)Nc1nc2ccc(Sc3ccccc3)cc2[nH]1 .
Result: yes (1)

Request: Please let me know the test result on file for Cc1cc2c(C(C)C)c(O)c(O)c(C=O)c2c(O)c1-c1c(C)cc2c(C(C)C)c(O)c(O)c(C=O)c2c1O (tested in a mixture with another compound) .
Result: no (0)
